TARGET_ENTITY: human melanocortin-1 receptor (human) (UniProt Q01726)
Sequence (Q01726 whole entry): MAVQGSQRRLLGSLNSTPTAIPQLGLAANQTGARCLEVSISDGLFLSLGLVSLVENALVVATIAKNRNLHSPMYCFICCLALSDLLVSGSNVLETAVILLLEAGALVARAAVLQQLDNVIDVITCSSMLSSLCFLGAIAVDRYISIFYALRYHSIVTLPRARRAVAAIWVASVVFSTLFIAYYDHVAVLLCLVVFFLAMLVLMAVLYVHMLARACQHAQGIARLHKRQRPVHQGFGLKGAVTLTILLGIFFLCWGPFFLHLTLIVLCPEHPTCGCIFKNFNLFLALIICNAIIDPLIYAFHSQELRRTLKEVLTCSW
TEST_DETAILS: cell-based or functional assay
Bridge positions count the residues as written; N and C are the ends. Square brackets hold non-standard residues; d marks the D form. Nle = CCCC[C@H](N)C(=O)O; Dab = NCC[C@H](N)C(=O)O; Dap = NC[C@H](N)C(=O)O
OUTCOME_MEASURE: MC-1 EC50 (average; cAMP HBL) (nM)
Dear colleague, please return just the value in nM, with no unit written.

Answered examples (5):
Ac-[Nle]EH[dF]R[Dab]K-NH2 (lactam 2-6; SMILES CCCC[C@H](NC(C)=O)C(=O)N[C@H]1CCC(=O)NCC[C@@H](C(=O)N[C@@H](CCCCN)C(N)=O)NC(=O)[C@H](CCCNC(=N)N)NC(=O)[C@@H](Cc2ccccc2)NC(=O)[C@H](Cc2c[nH]cn2)NC1=O) [Ac-Nle-cyclo(Glu-His-D-Phe-Arg-Dab)-Lys-NH2]	0.175
Ac-[Nle]EH[dF]A[Dab]W-NH2 (lactam 2-6; SMILES CCCC[C@H](NC(C)=O)C(=O)N[C@H]1CCC(=O)NCC[C@@H](C(=O)N[C@@H](Cc2c[nH]c3ccccc23)C(N)=O)NC(=O)[C@H](C)NC(=O)[C@@H](Cc2ccccc2)NC(=O)[C@H](Cc2c[nH]cn2)NC1=O) [Ac-Nle-cyclo(Glu-His-D-Phe-Ala-Dab)-Trp-NH2]	0.115
Ac-[Nle]EP[dF]R[Dab]W-NH2 (lactam 2-6; SMILES CCCC[C@H](NC(C)=O)C(=O)N[C@H]1CCC(=O)NCC[C@@H](C(=O)N[C@@H](Cc2c[nH]c3ccccc23)C(N)=O)NC(=O)[C@H](CCCNC(=N)N)NC(=O)[C@@H](Cc2ccccc2)NC(=O)[C@@H]2CCCN2C1=O) [Ac-Nle-cyclo(Glu-Pro-D-Phe-Arg-Dab)-Trp-NH2]	0.18
Ac-[Nle]EH[dF]R[Dab]A-NH2 (lactam 2-6) [Ac-Nle-cyclo(Glu-His-D-Phe-Arg-Dab)-Ala-NH2]	0.08
Ac-[Nle]DH[dF]R[Dap]W-NH2 (lactam 2-6; SMILES CCCC[C@H](NC(C)=O)C(=O)N[C@H]1CC(=O)NC[C@@H](C(=O)N[C@@H](Cc2c[nH]c3ccccc23)C(N)=O)NC(=O)[C@H](CCCNC(=N)N)NC(=O)[C@@H](Cc2ccccc2)NC(=O)[C@H](Cc2c[nH]cn2)NC1=O) [Ac-Nle-cyclo(Asp-His-D-Phe-Arg-Dap)-Trp-NH2]	0.195

Shift focus to the following entry.
Which MC-1 EC50 (average; cAMP HBL) value is on record for Ac-[Nle]EH[dF]G[Dab]W-NH2 (lactam 2-6; SMILES CCCC[C@H](NC(C)=O)C(=O)N[C@H]1CCC(=O)NCC[C@@H](C(=O)N[C@@H](Cc2c[nH]c3ccccc23)C(N)=O)NC(=O)CNC(=O)[C@@H](Cc2ccccc2)NC(=O)[C@H](Cc2c[nH]cn2)NC1=O) [Ac-Nle-cyclo(Glu-His-D-Phe-Gly-Dab)-Trp-NH2] ?
4
